All values here come from ChEMBL document CHEMBL3885861.

Species on record: Rattus norvegicus
Assay: Open TG-GATES - Regimen: Daily Repeat
Type: toxicity, organism-based, Sprague-Dawley
Set-up: regimen Daily Repeat, gender Male, age 6 weeks
Settings: in vivo, po, 1000 mg/kg, […], tissue Blood, route gavage, dose level High, time 28 day
Recorded measurements of RBC, one per entry
Endpoint: RBC

smiles_text=Cc1nnc2n1-c1ccc(Cl)cc1C(c1ccccc1Cl)=NC2 endpoint=RBC result="776.4 x10_4/ul"
smiles_text=O=C(OC[C@H]1O[C@@H](OC(=O)c2cc(O)c(O)c(OC(=O)c3cc(O)c(O)c(O)c3)c2)[C@H](OC(=O)c2cc(O)c(O)c(OC(=O)c3cc(O)c(O)c(O)c3)c2)[C@@H](OC(=O)c2cc(O)c(O)c(OC(=O)c3cc(O)c(O)c(O)c3)c2)[C@@H]1OC(=O)c1cc(O)c(O)c(OC(=O)c2cc(O)c(O)c(O)c2)c1)c1cc(O)c(O)c(OC(=O)c2cc(O)c(O)c(O)c2)c1 endpoint=RBC result="741.4 x10_4/ul"
smiles_text=CN/C(=N/CCSCc1nc[nH]c1C)NC#N endpoint=RBC result="782 x10_4/ul"
smiles_text=CCOc1ccc(NC(C)=O)cc1 endpoint=RBC result="566.6 x10_4/ul"
smiles_text=CNC(=C[N+](=O)[O-])NCCSCc1ccc(CN(C)C)o1 endpoint=RBC result="769.8 x10_4/ul"
smiles_text=COC(=O)C1=C(C)NC(C)=C(C(=O)OC)C1c1ccccc1[N+](=O)[O-] endpoint=RBC result="683.2 x10_4/ul"

* * *

Species: Rattus norvegicus
Assay: Open TG-GATES - Regimen: Single
Type: toxicity, organism-based, Sprague-Dawley
Set-up: regimen Single, gender Male, age 6 weeks
Conditions: in vivo, po, 300 mg/kg, 3 h, tissue Plasma, route gavage, dose level Middle
Endpoint: TBIL (mg/dL)

smiles_text=CNC(=C[N+](=O)[O-])NCCSCc1ccc(CN(C)C)o1 u=mg/dL numeric_result=0.1
smiles_text=Cc1nnc2n1-c1ccc(Cl)cc1C(c1ccccc1Cl)=NC2 u=mg/dL numeric_result=0.066
smiles_text=COC(=O)C1=C(C)NC(C)=C(C(=O)OC)C1c1ccccc1[N+](=O)[O-] u=mg/dL numeric_result=0.034
smiles_text=CN/C(=N/CCSCc1nc[nH]c1C)NC#N u=mg/dL numeric_result=0.1
smiles_text=O=C(OC[C@H]1O[C@@H](OC(=O)c2cc(O)c(O)c(OC(=O)c3cc(O)c(O)c(O)c3)c2)[C@H](OC(=O)c2cc(O)c(O)c(OC(=O)c3cc(O)c(O)c(O)c3)c2)[C@@H](OC(=O)c2cc(O)c(O)c(OC(=O)c3cc(O)c(O)c(O)c3)c2)[C@@H]1OC(=O)c1cc(O)c(O)c(OC(=O)c2cc(O)c(O)c(O)c2)c1)c1cc(O)c(O)c(OC(=O)c2cc(O)c(O)c(O)c2)c1 u=mg/dL numeric_result=0.5

* * *

Species: Rattus norvegicus
Assay: Open TG-GATES - Regimen: Daily Repeat
Assay type: toxicity, organism-based, Sprague-Dawley
Design: regimen Daily Repeat, gender Male, age 6 weeks
Settings: in vivo, po, 0 mg/kg, 72 h, tissue Kidney, route gavage, dose level Control, time 3 day
Endpoint: KIDNEY_L (g)

molecule="Nc1c2c(nc3ccccc13)CCCC2 [TACRINE]" numeric_result=0.9
molecule="CN(C)CCC(c1ccc(Cl)cc1)c1ccccn1 (configuration not stated) [CHLORPHENIRAMINE]" numeric_result=0.9
molecule="CN1C(=O)CCS(=O)(=O)C1c1ccc(Cl)cc1 (configuration not stated) [CHLORMEZANONE]" numeric_result=0.9
molecule="NC1=NC(=O)C(c2ccccc2)O1 (configuration not stated) [PEMOLINE]" numeric_result=1
molecule="Cc1nnc2n1-c1ccc(Cl)cc1C(c1ccccc1Cl)=NC2 [TRIAZOLAM]" numeric_result=1
molecule="CCCc1cc(=O)[nH]c(=S)[nH]1 [PROPYLTHIOURACIL]" numeric_result=0.9
molecule="O=C(OC[C@H]1O[C@@H](OC(=O)c2cc(O)c(O)c(OC(=O)c3cc(O)c(O)c(O)c3)c2)[C@H](OC(=O)c2cc(O)c(O)c(OC(=O)c3cc(O)c(O)c(O)c3)c2)[C@@H](OC(=O)c2cc(O)c(O)c(OC(=O)c3cc(O)c(O)c(O)c3)c2)[C@@H]1OC(=O)c1cc(O)c(O)c(OC(=O)c2cc(O)c(O)c(O)c2)c1)c1cc(O)c(O)c(OC(=O)c2cc(O)c(O)c(O)c2)c1 [TANNIC ACID]" numeric_result=0.9

* * *

# key: entry, value: Eos
Species: Rattus norvegicus
Experiment: Open TG-GATES - Regimen: Daily Repeat
Type: toxicity, organism-based, Sprague-Dawley
Parameters: regimen Daily Repeat, gender Male, age 6 weeks
Conditions: in vivo, po, 300 mg/kg, […], tissue Blood, route gavage, dose level Middle, time 28 day
Endpoint: Eos (%)

compound="O=C(OC[C@H]1O[C@@H](OC(=O)c2cc(O)c(O)c(OC(=O)c3cc(O)c(O)c(O)c3)c2)[C@H](OC(=O)c2cc(O)c(O)c(OC(=O)c3cc(O)c(O)c(O)c3)c2)[C@@H](OC(=O)c2cc(O)c(O)c(OC(=O)c3cc(O)c(O)c(O)c3)c2)[C@@H]1OC(=O)c1cc(O)c(O)c(OC(=O)c2cc(O)c(O)c(O)c2)c1)c1cc(O)c(O)c(OC(=O)c2cc(O)c(O)c(O)c2)c1 [TANNIC ACID]" endpoint=Eos numeric_result=1.8
compound="CN/C(=N/CCSCc1nc[nH]c1C)NC#N [CIMETIDINE]" endpoint=Eos numeric_result=1
compound="COC(=O)C1=C(C)NC(C)=C(C(=O)OC)C1c1ccccc1[N+](=O)[O-] [NIFEDIPINE]" endpoint=Eos numeric_result=1

* * *

Species: Rattus norvegicus
Experiment: Open TG-GATES - Regimen: Single
Assay type: toxicity, organism-based, Sprague-Dawley
Set-up: regimen Single, gender Male, age 6 weeks
Details: in vivo, po, 0 mg/kg, 3 h, tissue Kidney, route gavage, dose level Control
The following compounds are listed with their measured KIDNEY_R values.
Endpoint: KIDNEY_R (g)

compound=Brc1ccccc1 u=g numeric_result=0.8
compound=COC(=O)C1=C(C)NC(C)=C(C(=O)OC)C1c1ccccc1[N+](=O)[O-] u=g numeric_result=0.9
compound=CCCc1cc(=O)[nH]c(=S)[nH]1 u=g numeric_result=0.8
compound="CS(=O)(=O)O.Cc1ccc(NC(=O)c2ccc(CN3CCN(C)CC3)cc2)cc1Nc1nccc(-c2cccnc2)n1 [IMATINIB MESYLATE]" u=g numeric_result=0.9
compound="CN(C)CCC(c1ccc(Cl)cc1)c1ccccn1 (stereo unspecified)" u=g numeric_result=0.9
compound=CN/C(=N/CCSCc1nc[nH]c1C)NC#N u=g numeric_result=1

* * *

Species: Rattus norvegicus
Assay: Open TG-GATES - Regimen: Single
Assay type: toxicity, organism-based, Sprague-Dawley
Parameters: regimen Single, gender Male, age 6 weeks
Settings: in vivo, po, 0 mg/kg, 3 h, tissue Plasma, route gavage, dose level Control
Endpoint: DBIL

compound=Cc1nnc2n1-c1ccc(Cl)cc1C(c1ccccc1Cl)=NC2 endpoint=DBIL result="0.012 mg/dL"
compound=CC(C)NNC(=O)c1ccncc1 endpoint=DBIL result="0.004 mg/dL"
compound=CN/C(=N/CCSCc1nc[nH]c1C)NC#N endpoint=DBIL result="0.072 mg/dL"
compound="CN(C)CCC(c1ccc(Cl)cc1)c1ccccn1 (centres undefined)" endpoint=DBIL result="0.008 mg/dL"
compound="NC1=NC(=O)C(c2ccccc2)O1 (centres undefined)" endpoint=DBIL result="0.014 mg/dL"
compound=Brc1ccccc1 endpoint=DBIL result="0.022 mg/dL"
compound=CCOc1ccc(NC(C)=O)cc1 endpoint=DBIL result="0 mg/dL"
compound="CS(=O)(=O)O.Cc1ccc(NC(=O)c2ccc(CN3CCN(C)CC3)cc2)cc1Nc1nccc(-c2cccnc2)n1 [IMATINIB MESYLATE]" endpoint=DBIL result="0.004 mg/dL"
compound="CN1C(=O)CCS(=O)(=O)C1c1ccc(Cl)cc1 (centres undefined)" endpoint=DBIL result="0.036 mg/dL"

* * *

Organism: Rattus norvegicus
Assay: Open TG-GATES - Regimen: Daily Repeat
Format: toxicity, organism-based, Sprague-Dawley
Set-up: regimen Daily Repeat, gender Male, age 6 weeks
Settings: in vivo, po, 300 mg/kg, 72 h, tissue Blood, route gavage, dose level Middle, time 3 day
Endpoint: Lym (%)

smiles_text=CNC(=C[N+](=O)[O-])NCCSCc1ccc(CN(C)C)o1 numeric_result=78.8
smiles_text=CN/C(=N/CCSCc1nc[nH]c1C)NC#N numeric_result=80
smiles_text=CCOc1ccc(NC(C)=O)cc1 numeric_result=75.2
smiles_text=O=C(OC[C@H]1O[C@@H](OC(=O)c2cc(O)c(O)c(OC(=O)c3cc(O)c(O)c(O)c3)c2)[C@H](OC(=O)c2cc(O)c(O)c(OC(=O)c3cc(O)c(O)c(O)c3)c2)[C@@H](OC(=O)c2cc(O)c(O)c(OC(=O)c3cc(O)c(O)c(O)c3)c2)[C@@H]1OC(=O)c1cc(O)c(O)c(OC(=O)c2cc(O)c(O)c(O)c2)c1)c1cc(O)c(O)c(OC(=O)c2cc(O)c(O)c(O)c2)c1 numeric_result=76.8
smiles_text=COC(=O)C1=C(C)NC(C)=C(C(=O)OC)C1c1ccccc1[N+](=O)[O-] numeric_result=73
smiles_text=Cc1nnc2n1-c1ccc(Cl)cc1C(c1ccccc1Cl)=NC2 numeric_result=78.6
